Recorded values, source patent US12201626B2.

Assay: Differential Nuclear Staining (DNS) cytotoxicity assay
Format: cell-based
Conditions: human, MDA-MB-231 cells against non-cancerous MCF-10A cells, CC50 of non-cancerous MCF-10A / CC50 of MDA-MB-231; read-out: selective cytotoxicity index (SCI)
ENDPOINT_LABEL: selectivity ratio at 72 h

INPUT: Reported selectivity ratio at 72 h for COC1=CC=C2Nc3cc(Cl)ccc3C(N=C3C=C(CN4CCCC4)C(=O)C(CN4CCCC4)=C3)=C2N1 [PND] : what is it?
OUTPUT: > 3

----------
Experiment: Differential Nuclear Staining (DNS) cytotoxicity assay
Assay type: cell-based
Conditions: human, T47D cells (against non-cancerous cells, line not specified); read-out: selective cytotoxicity index (SCI)
Excerpt: In this study, 19 human cell lines were utilized: seven breast human cancer; MDA-MB-468, MCF-7, T47D, HCC1419, HCC70, MDA-MB-231 (triple negative) and its lung metastatic (LM) derivative MDA-MB-231 LM2; four human leukemia/lymphoma cells, HL-60, Ramos, Jurkat and CEM, three human ovarian cancer, Ovcar 8, Ovcar 5 and Ovcar 3, one lung cancer, one melanoma and one pancreatic cell line, A549, A375, Panc-1 respectively. […]
ENDPOINT_LABEL: selectivity ratio at 72 h

INPUT: Item COC1=CC=C2Nc3cc(Cl)ccc3C(N=C3C=C(CN4CCCC4)C(=O)C(CN4CCCC4)=C3)=C2N1 has what recorded selectivity ratio at 72 h?
OUTPUT: < 1

----------
Assay: Differential Nuclear Staining (DNS) cytotoxicity assay
Format: cell-based
Conditions: human; HCC-70; read-out: selective cytotoxicity index (SCI)
ENDPOINT_LABEL: selectivity ratio at 72 h

INPUT: Item under review: COC1=CC=C2Nc3cc(Cl)ccc3C(N=C3C=C(CN4CCCC4)C(=O)C(CN4CCCC4)=C3)=C2N1 . Reported selectivity ratio at 72 h?
OUTPUT: < 1

----------
Test: Differential Nuclear Staining (DNS) cytotoxicity assay
Type: cell-based
Settings: human, MCF-10A non-cancerous cells
Description: In this study, 19 human cell lines were utilized: seven breast human cancer; MDA-MB-468, MCF-7, T47D, HCC1419, HCC70, MDA-MB-231 (triple negative) and its lung metastatic (LM) derivative MDA-MB-231 LM2; four human leukemia/lymphoma cells, HL-60, Ramos, Jurkat and CEM, three human ovarian cancer, Ovcar 8, Ovcar 5 and Ovcar 3, one lung cancer, one melanoma and one pancreatic cell line, A549, A375, Panc-1 respectively. […]
ENDPOINT_LABEL: CC50 at 72 h (µM)
Output spec: scalar in µM, unitless text.

INPUT: // returns reported CC50 at 72 h for input COC1=CC=C2Nc3cc(Cl)ccc3C(N=C3C=C(CN4CCCC4)C(=O)C(CN4CCCC4)=C3)=C2N1 [PND]
OUTPUT: 6.6

----------
Experiment: Differential Nuclear Staining (DNS) cytotoxicity assay, panel
Type: cell-based
Details: human, leukemia/lymphoma cells; read-out: selective cytotoxicity index (SCI)
ENDPOINT_LABEL: selectivity ratio at 72 h

INPUT: What value of measured selectivity ratio at 72 h is listed for COC1=CC=C2Nc3cc(Cl)ccc3C(N=C3C=C(CN4CCCC4)C(=O)C(CN4CCCC4)=C3)=C2N1 ?
OUTPUT: 1.43 to 3.47

----------
Assay: Differential Nuclear Staining (DNS) cytotoxicity assay
Type: cell-based
Details: human; lung cancer line; read-out: selective cytotoxicity index (SCI)
ENDPOINT_LABEL: selectivity ratio at 72 h

INPUT: Recorded selectivity ratio at 72 h for COC1=CC=C2Nc3cc(Cl)ccc3C(N=C3C=C(CN4CCCC4)C(=O)C(CN4CCCC4)=C3)=C2N1 , please?
OUTPUT: < 2

----------
Test: Differential Nuclear Staining (DNS) cytotoxicity assay
Assay type: cell-based
Settings: human, MDA-MB-231 LM2 cells against non-cancerous MCF-10A cells, vs MCF-10A, read-out: selective cytotoxicity index (SCI)
ENDPOINT_LABEL: selectivity ratio at 72 h
Quick one: just the number, no unit, thanks!

INPUT: Look up selectivity ratio at 72 h: COC1=CC=C2Nc3cc(Cl)ccc3C(N=C3C=C(CN4CCCC4)C(=O)C(CN4CCCC4)=C3)=C2N1
OUTPUT: 2.54

----------
Assay: Differential Nuclear Staining (DNS) cytotoxicity assay
Assay type: cell-based
Conditions: human; melanoma cell line; read-out: selective cytotoxicity index (SCI)
ENDPOINT_LABEL: selectivity ratio at 72 h

INPUT: What measured selectivity ratio at 72 h goes with COC1=CC=C2Nc3cc(Cl)ccc3C(N=C3C=C(CN4CCCC4)C(=O)C(CN4CCCC4)=C3)=C2N1 [PND] ?
OUTPUT: 3.2

----------
Experiment: Differential Nuclear Staining (DNS) cytotoxicity assay
Assay type: cell-based
Settings: human; pancreatic cancer line; read-out: selective cytotoxicity index (SCI)
ENDPOINT_LABEL: selectivity ratio at 72 h

INPUT: Using the record for COC1=CC=C2Nc3cc(Cl)ccc3C(N=C3C=C(CN4CCCC4)C(=O)C(CN4CCCC4)=C3)=C2N1 , report its selectivity ratio at 72 h.
OUTPUT: < 2

----------
Assay: Differential Nuclear Staining (DNS) cytotoxicity assay
Assay type: cell-based
Conditions: human; two of the three ovarian cancer lines; read-out: selective cytotoxicity index (SCI)
ENDPOINT_LABEL: selectivity ratio at 72 h
// return just the number, without any unit appended

INPUT: # query: selectivity ratio at 72 h of entry COC1=CC=C2Nc3cc(Cl)ccc3C(N=C3C=C(CN4CCCC4)C(=O)C(CN4CCCC4)=C3)=C2N1
OUTPUT: 3.9

----------
Tested on: MDA-MB-231 breast cancer line
Assay: cells
Format: cell-based, human
ENDPOINT_LABEL: CC50 (µM)
Entry rule: numbers only, all in µM.

INPUT: Which value of CC50 has been reported for N.N.[Cl][Pt][Cl] [cisplatin] in the records?
OUTPUT: 95.4
